tgt: 72 kDa type IV collagenase (Homo sapiens)
experimental.details: inhibitors of human MMP-2 protease – biochemical, fluorescence, single concentration, counter-screen for RPN11 inhibitor project, confirmation (AID 602330);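 further: human MMP-2 activated beforehand with APMA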
condition.description: recombinant MMP-2, FRET peptide cleavage fluorescence; at 20 µM; hits give high values
Among all 1,900 compounds or so, about 85 (4%) were called active. Not all results are given here.
Could you label it Yes if measured inhibition is -10% or higher, and No otherwise?

Decide: inhibition of COc1cccc(NC(=O)C(C)Oc2ccccc2)c1 (centres undefined) >= -10%?
No

Reported inhibition at or above -10%? Cc1oc2c(C)c3oc(=O)c(CC(=O)N[C@@H](CC(C)C)C(=O)N[C@@H](Cc4ccccc4)C(=O)O)c(C)c3cc2c1C
No

Hi, just wondering whether C/C(=N/Nc1nc(-c2ccccc2)c(CC(=O)O)s1)c1ccccc1 shows inhibition of -10% or higher.
Yes

Is inhibition at least -10%? Consider CC(=O)/C(=N\Nc1ccc(Cl)cc1Cl)Sc1cccc2cccnc12
No

Could you tell me if the measured inhibition of COc1ccc(CNC(=O)c2nnn(CC(=O)Nc3cc(C)cc(C)c3)c2N)cc1 reaches -10% or more?
Yes

Evaluate CC(=O)Nc1ccccc1Sc1ccc2c3c(cccc13)C(=O)N(c1ccc(C)cc1)C2=O : inhibition at minimum -10%?
No

State whether the measured inhibition reaches -10%, counting equality as reaching it, for CCCS(=O)(=O)N1CCCC(C(=O)NCc2ccco2)C1 (centres undefined)
Yes

Determine whether measured inhibition meets or exceeds -10% for COc1ccc(-n2c(SCC(=O)Nc3sc4c(c3C#N)CCCC4)nnc2-c2ccc(O)cc2)cc1
Yes

Identify whether the reported inhibition of the following molecule is -10% or greater: CC1CCN(c2ccc3c(c2)S(=O)(=O)c2cc(C(=O)O)ccc2C3=O)CC1
No

Hi team, for O=C(COc1cccc(F)c1)Oc1ccc(C(=O)c2ccccc2)cc1 , is the recorded inhibition at or above -10%?
Yes

Tell me whether inhibition is at least -10% here: CCOc1ccc(-n2c(O)c(/C=N/Nc3nnc(C)c(=O)[nH]3)c3ccccc3c2=O)cc1
Yes

// inclusive: inhibition at least -10%? input: CCc1ccc(NC(=O)CS(=O)CC(=O)NCCCc2ccccc2)cc1 (centres undefined)
Yes

Check this molecule for inhibition at or above -10%: CC(C)(C)NC(=O)CSC(=Nc1ccccc1F)NC#N
No

// inclusive: inhibition at least -10%? input: Cc1nc2ccccc2nc(=O)c1NNc1ccc([N+](=O)[O-])cc1
No

Given CN(C)CCOC1c2ccccc2-c2ccccc21 , state whether its inhibition is at least -10%.
No

Could you tell me if the measured inhibition of CCOc1ccc(NC(=O)c2ccc(NC(=O)COC(=O)c3ccc(NC(=O)CC#N)cc3)cc2)cc1 reaches -10% or more?
Yes

Identify whether the reported inhibition of the following molecule is -10% or greater: Cc1c(N=Nc2ccc(N(C)C)cc2)c(=O)n(-c2ccccc2)n1C
No

Reported inhibition reaches at least -10% for C=CCn1c(=S)[nH]c2scc(-c3ccco3)c2c1=O ?
Yes

Check the entry COc1ccc(CC(=O)Nc2ccc(-c3nnc(-c4ccc(C)cc4)o3)cc2)cc1 : does inhibition equal or exceed -10%?
No

Is inhibition at least -10%? Consider Cc1nc2ccc(C(=O)N3CCSCC3)cc2s1
No

Given the entry O=C(CSc1cccc2cccnc12)N/N=C/c1cccnc1 , answer whether its inhibition meets or surpasses -10%.
No

Could you tell me if the measured inhibition of Cc1cc(/C=C2/SC(=O)N(CC(=O)N3CCCC3)C2=O)ccc1N1CCOCC1 reaches -10% or more?
No

Hi team, for Cc1nc2ccccc2n1C(=O)N1CCOCC1 , is the recorded inhibition at or above -10%?
Yes

Hi, just wondering whether Cc1sc2nc(COC(=O)C(NC(=O)c3ccc(Cl)cc3Cl)C(C)C)[nH]c(=O)c2c1C (centres undefined) shows inhibition of -10% or higher.
No
